# system: DB_K210A (human, UniProt P03372 176-250, K210A)
# Sequence (P03372 176-250 K210A): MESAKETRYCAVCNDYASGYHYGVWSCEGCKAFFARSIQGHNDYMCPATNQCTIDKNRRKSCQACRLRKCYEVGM
# procedure.text: ITC
parameter: pKd
The read-out pKd is expressed as -log10 of concentration in moles per litre.

The binder identified as ERE duplex (dsDNA) DNA 1: CCCAGGTCACAGTGACCTGCG DNA 2: CGCAGGTCACTGTGACCTGGG registered its pKd at 6.49
